Provenance of the data: the supplement of paper PMC10567573

B1: TRIM63 (parent)
chain: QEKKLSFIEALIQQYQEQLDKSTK

Variants of: B1
Experiment: protein stability index of a GFP-peptide fusion (GPS, HEK-293T) (PSI 1-6); higher = more stable;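 also: lentivirally expressed fusions sorted by FACS into six bins by GFP to DsRed ratio, PSI derived from sequencing read proportions per bin multiplied by bin number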
Conditions: c terminus: a fixed tail appended
Recorded measurements of protein stability index, one per entry
Give a plain numeric answer without units written out.

Take a look at these entries with their results.
1. A10T	2.72
2. Q18C	2.34
3. L19K	4.08
4. Q1D	2.21
5. E9W	1.6
6. D20N	2.08
7. K24N	2.79
8. E17R	1.45

Quick one: protein stability index of "K3N" ?
3.11

Quick one: protein stability index of "L5R" ?
3.05
